The values you see were collected from patent US8389764B2.

# Target Or Test System: TAFIa (Homo sapiens, UniProt Q96IY4)
# Sequence (Q96IY4 115-423): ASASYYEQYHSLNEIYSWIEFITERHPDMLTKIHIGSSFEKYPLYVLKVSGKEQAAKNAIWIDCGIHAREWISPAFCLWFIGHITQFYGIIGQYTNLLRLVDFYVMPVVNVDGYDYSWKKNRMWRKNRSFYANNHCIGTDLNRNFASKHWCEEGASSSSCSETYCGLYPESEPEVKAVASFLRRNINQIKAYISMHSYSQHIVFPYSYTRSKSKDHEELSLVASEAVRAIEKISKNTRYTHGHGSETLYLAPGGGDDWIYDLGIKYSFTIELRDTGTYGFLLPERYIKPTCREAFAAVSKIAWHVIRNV
# Assay Explanation: TAFIa inhibition, Actichrome plasma TAFI activity kit (American Diagnostica)
# Condition Context: 15 min preincubation at room temperature, read at 420 nm, duplicate determination of serial dilutions
# Description: The enzymic reaction was started by adding 10 μl of TAFIa developer (prediluted 1:2 with assay buffer). The IC50 values were calculated from the averaged values (duplicate determination) of serial dilutions of the substance with the aid of the Softmax Pro software (version 4.8; Molecular Devices).
So basically: is IC50 under 200 nM? Then yes (1). Not under? Then no (0).

These solved cases illustrate the format of a correct answer.
NCCCC[C@H](NC(=O)N[C@H](CC1CCCCC1)C(=O)NCc1ccc(F)cc1F)C(=O)O [Example 11] :: no (0)
CC(CNC(=O)[C@@H](CCCCNC(=O)OCc1ccccc1)NC(=O)N[C@@H](CCCCN)C(=O)O)c1ccccc1 (stereo partly drawn) [Example 34] :: no (0)
CCOC(=O)[C@@H]1CCCC[C@@H]1NC(=O)[C@@H](CCCCNC(=O)OCc1ccccc1)NC(=O)N[C@@H](CCCCN)C(=O)O [Example 33] :: yes (1)
CC(C)[C@H](NC(=O)[C@@H](CCCCNC(=O)OCc1ccccc1)NC(=O)N[C@@H](CCCCN)C(=O)O)C(=O)NC1C[C@@H]2CC[C@H]1C2 (stereo partly drawn) [Example 115] :: no (0)

INPUT: Lab note: confirm whether the reported IC50 for this compound is below 200 nM, equality not counting. compound: CC1(C)[C@@H]2CC[C@@]1(C)[C@@H](NC(=O)[C@@H](CC1CC1)NC(=O)N[C@@H](CCCCN)C(=O)O)C2 [Example 108]
OUTPUT: yes (1)

====

Recorded measurements of IC50, one per entry
# Target Or Test System: UniProt Q96IY4
# Assay Explanation: TAFIa inhibition, Actichrome plasma TAFI activity kit (American Diagnostica)
# Condition Context: 15 min preincubation at room temperature, read at 420 nm, duplicate determination of serial dilutions
Kindly format the answer as number then unit.

Solved entries (count: 2):
CCC(C)CNC(=O)[C@@H](CC1CCCCC1)NC(=O)N[C@@H](CCCCN)C(=O)O (stereo partly drawn) :: 1050 nM
C[C@H]1CC[C@H](NC(=O)[C@@H](CC2CCCCC2)NC(=O)N[C@@H](CCCCN)C(=O)O)CC1 :: 76 nM

INPUT: Give UniProt Q96IY4 IC50 for `NCCCC[C@H](NC(=O)N[C@H](CC1CCCCC1)C(=O)NCC12CC3CC(CC(C3)C1)C2)C(=O)O`
OUTPUT: 305 nM

====

Recorded measurements of pIC50, one per entry
# Target Or Test System: TAFIa (Homo sapiens, UniProt Q96IY4)
# Sequence (Q96IY4 115-423): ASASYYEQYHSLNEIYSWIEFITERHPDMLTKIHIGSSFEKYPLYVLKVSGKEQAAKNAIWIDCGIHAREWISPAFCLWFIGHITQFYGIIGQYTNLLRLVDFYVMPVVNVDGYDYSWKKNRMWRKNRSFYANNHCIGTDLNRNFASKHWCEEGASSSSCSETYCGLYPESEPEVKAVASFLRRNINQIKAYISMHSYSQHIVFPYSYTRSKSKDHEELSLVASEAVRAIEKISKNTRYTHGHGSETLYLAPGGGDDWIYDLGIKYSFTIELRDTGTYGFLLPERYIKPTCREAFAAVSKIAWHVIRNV
# Assay Explanation: TAFIa inhibition, Actichrome plasma TAFI activity kit (American Diagnostica)
# Condition Context: 15 min preincubation at room temperature, read at 420 nm, duplicate determination of serial dilutions
Numbered stars: 1 amine (or outer) side, 2 acyl side, 3 side chain; on linkers, the order of the positions; unused ones are H or OH. Square brackets hold non-standard residues; d marks the D form. Peptide text beside a SMILES is read from it. * marks the point of attachment. Ac5c = NC1(C(=O)O)CCCC1; Cbz = O=C(OCc1ccccc1)*; CO = O=C([*:1])[*:2]
Field pIC50 (float): negative decimal logarithm of the concentration in molar.

Solved entries (count: 3):
COC(=O)C1(NC(=O)[C@@H](CCCCNC(=O)OCc2ccccc2)NC(=O)N[C@@H](CCCCN)C(=O)O)CCCC1 [Example 39] ({Lys-CO}-[dK](Cbz)-[Ac5c]-OMe) :: 5.94
CC1(C)[C@@H]2CC[C@@]1(C)[C@@H](NC(=O)[C@@H](CC1CCCCC1)NC(=O)N[C@@H](Cc1ccc(N)nc1)C(=O)O)C2 :: 5.82
Cc1cccc(CNC(=O)[C@@H](CC2CCCCC2)NC(=O)N[C@@H](CCCCN)C(=O)O)c1C :: 6.31

# context switch: different molecule, same pIC50
INPUT: Which value of pIC50 has been reported for `CC(C)[C@H](NC(=O)[C@@H](CCCCNC(=O)OCc1ccccc1)NC(=O)N[C@@H](CCCCN)C(=O)O)C(=O)NCc1ccc(Cl)cc1` in the records?
OUTPUT: 6.22
